assay: Rat PK study #1 (Compound A PO, methylcellulose vs propylene glycol formulation); assay type: in vivo, Lewis rats; conditions: male, Lewis, rat, plasma, po, 10 mg/kg, Lewis rats, PO 10 mg/kg, propylene glycol/Vitamin E TPGS/water formulation, 0.083 h, mean of 3 animals
EXPERIMENTAL_READOUT: concentration at 0.083 h (ng/mL)
Numeric answer only, unit ng/mL assumed.

Query: Any idea what its concentration at 0.083 h is? The compound is Cn1cc(-c2ccccc2)c(-c2cn(C)c(=O)c3[nH]c(-c4cnn(C(F)(F)F)c4)cc23)cc1=O
Reply: 4.29

---

experiment: Rat PK study #1 (Compound A PO, methylcellulose vs propylene glycol formulation); format: in vivo, Lewis rats; details: male, Lewis, rat, plasma, po, 10 mg/kg, Lewis rats, PO 10 mg/kg, 1% methylcellulose formulation, 2 h, individual animals
EXPERIMENTAL_READOUT: concentration at 2 h (ng/mL)
Numeric answer only, unit ng/mL assumed.

Query: Any idea what its concentration at 2 h is? The molecule is Cn1cc(-c2ccccc2)c(-c2cn(C)c(=O)c3[nH]c(-c4cnn(C(F)(F)F)c4)cc23)cc1=O
Reply: 25.5
